FYI, the data here is from patent US5854015A.

- RECORDED_CONDITIONS: in vivo
MEASURED_PROPERTY: Concentration in retina (ng per mg retina)

- Cc1c(O)cc2c(c1C)O[C@](C)(CCC[C@H](C)CCC[C@H](C)CCCC(C)C)CC2: 5.0
- CC1=C(/C=C/C(C)=C/C=C/C(C)=C/C=C/C=C(C)/C=C/C=C(C)/C=C/C2=C(C)C(=O)CCC2(C)C)C(C)(C)CCC1=O: 1.7
- CC1=C(/C=C/C(C)=C/C=C/C(C)=C/C=C/C=C(C)/C=C/C=C(C)/C=C/C2=C(C)C[C@@H](O)CC2(C)C)C(C)(C)C[C@H](O)C1 [zeaxanthin, 3,3'-dihydroxy-β-β-carotene]: 4.7
